- target-system: P110 δ (Homo sapiens)
- Construct: The δ isoform was immunoprecipitated from THP-1 cells; endogenous in cells
- Sequence (O00329 whole entry, canonical isoform): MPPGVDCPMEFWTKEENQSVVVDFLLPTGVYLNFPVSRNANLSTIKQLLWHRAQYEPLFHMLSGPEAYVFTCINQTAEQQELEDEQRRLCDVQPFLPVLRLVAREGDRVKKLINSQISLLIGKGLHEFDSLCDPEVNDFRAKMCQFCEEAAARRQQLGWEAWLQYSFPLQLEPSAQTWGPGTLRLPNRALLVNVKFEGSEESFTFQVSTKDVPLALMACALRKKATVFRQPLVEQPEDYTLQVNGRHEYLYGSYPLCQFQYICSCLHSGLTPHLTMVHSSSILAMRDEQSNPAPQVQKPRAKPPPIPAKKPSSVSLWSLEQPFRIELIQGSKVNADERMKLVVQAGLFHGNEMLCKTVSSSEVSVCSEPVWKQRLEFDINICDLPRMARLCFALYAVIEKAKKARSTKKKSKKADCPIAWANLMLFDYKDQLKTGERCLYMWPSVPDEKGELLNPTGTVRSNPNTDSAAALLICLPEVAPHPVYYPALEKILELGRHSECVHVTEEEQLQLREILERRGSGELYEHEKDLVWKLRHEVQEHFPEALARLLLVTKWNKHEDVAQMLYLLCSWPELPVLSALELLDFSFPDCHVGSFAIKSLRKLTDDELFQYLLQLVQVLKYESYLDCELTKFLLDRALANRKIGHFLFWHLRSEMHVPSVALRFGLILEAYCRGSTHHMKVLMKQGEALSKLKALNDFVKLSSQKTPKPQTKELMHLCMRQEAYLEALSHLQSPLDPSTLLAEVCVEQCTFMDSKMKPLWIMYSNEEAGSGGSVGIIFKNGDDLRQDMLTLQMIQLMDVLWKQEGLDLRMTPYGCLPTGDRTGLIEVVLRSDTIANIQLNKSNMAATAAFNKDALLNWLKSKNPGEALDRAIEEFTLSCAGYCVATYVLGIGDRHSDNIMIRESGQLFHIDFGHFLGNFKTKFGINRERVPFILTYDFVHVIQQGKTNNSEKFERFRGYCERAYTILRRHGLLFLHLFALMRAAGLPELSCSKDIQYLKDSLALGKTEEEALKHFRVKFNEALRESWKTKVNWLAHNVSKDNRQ
- Sequence (P27986 whole entry partner, canonical isoform): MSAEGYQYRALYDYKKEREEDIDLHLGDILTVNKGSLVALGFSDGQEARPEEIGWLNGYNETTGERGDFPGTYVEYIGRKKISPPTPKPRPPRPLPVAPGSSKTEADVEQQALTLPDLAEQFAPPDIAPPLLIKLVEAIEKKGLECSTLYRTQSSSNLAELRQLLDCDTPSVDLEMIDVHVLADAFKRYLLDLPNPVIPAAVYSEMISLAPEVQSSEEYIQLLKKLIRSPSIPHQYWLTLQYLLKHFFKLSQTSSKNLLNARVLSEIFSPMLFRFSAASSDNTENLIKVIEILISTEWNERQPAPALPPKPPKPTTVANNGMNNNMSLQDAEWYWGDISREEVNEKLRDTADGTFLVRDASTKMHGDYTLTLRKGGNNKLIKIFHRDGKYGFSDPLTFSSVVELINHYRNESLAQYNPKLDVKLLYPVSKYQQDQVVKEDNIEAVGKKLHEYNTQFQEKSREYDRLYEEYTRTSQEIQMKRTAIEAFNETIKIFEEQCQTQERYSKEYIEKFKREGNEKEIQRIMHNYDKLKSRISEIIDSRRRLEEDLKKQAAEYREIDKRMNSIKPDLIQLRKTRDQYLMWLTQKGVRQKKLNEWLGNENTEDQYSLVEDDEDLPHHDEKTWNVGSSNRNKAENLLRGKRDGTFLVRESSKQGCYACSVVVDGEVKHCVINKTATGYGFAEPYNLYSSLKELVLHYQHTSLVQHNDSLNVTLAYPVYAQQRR
- test-details: Isoform selective in vitro PI3K enzyme assay (Example 13), δ from THP-1 cells
- experimental-parameters: read-out: P110 δ IC50s
assay-readout: IC50 (nM)

Consider the reported IC50 for these compounds:
compound | experimental-result
O=c1cc(-c2ccncc2)nc2c(Cc3ccccc3)cccn12 | 2000
Cc1cc(C(C)Nc2ccc(F)cc2C)c2oc(-c3ccncc3)cc(=O)c2c1 (stereo not drawn) | 500
Cc1cc(CNc2ccccn2)c2oc(-c3ccncc3)cc(=O)c2c1 | 5000
Cc1cc(COc2ccccc2)c2oc(-c3ccncc3)cc(=O)c2c1 | 5000
Cc1cc(C(C)Nc2cccc(C(F)(F)F)c2)c2oc(-c3ccncc3)cc(=O)c2c1 (stereo not drawn) | 1000
O=c1cc(-c2ccncc2)oc2c(OCc3ccccc3)cccc12 | 1000
O=c1cc(-c2ccncc2)oc2c(NCc3ccccc3)cccc12 | 200
Cc1cc(C(C)Nc2cccc(C)n2)c2oc(-c3ccncc3)cc(=O)c2c1 (stereo not drawn) | 1000

P: O=c1cc(-c2ccncc2)[nH]c2c(Oc3ccccc3)cccc12
Q: O=c1cc(-c2ccncc2)oc2c(Nc3ccccc3)cccc12
IC50 comparison. Which is larger, P or Q ? Which one? Tell me its label.
P
(P: 300 nM, Q: 50 nM)

P: Cc1cc(F)ccc1Oc1cccc2c(=O)cc(-c3ccncc3)[nH]c12
Q: O=c1cc(-c2ccncc2)nc2c(NCCc3ccccc3)cccn12
// which entry reports the smaller IC50, P or Q ? Which one? Tell me its label.
P
(P: 200 nM, Q: 1000 nM)

1: Cc1cc(C(C)Oc2ccccc2)c2oc(-c3ccncc3)cc(=O)c2c1 (stereo not drawn)
2: O=c1cc(-c2ccncc2)[nH]c2c(Cc3ccccc3)cccc12
// which entry reports the smaller IC50, 1 or 2 ? Which one? Tell me its label.
1
(1: 5000 nM, 2: 10000 nM)
